tested on: Streptococcus mutans; test: Antibiofilm activity against Streptococcus mutans ATCC 25175 measured after overnight incubation by crystal violet-staining based assay; assay type: functional
Task for the reader: assign each of the following molecules its reported MBIC.
The answer should read as a number with its unit following.

What value of MBIC on Streptococcus mutans does CC1=CCC[C@@H]2[C@@](C)(CCC3=CC(=O)OC3Nc3ccccc3F)[C@H](C)CC[C@@]12C (mixture of isomers) have?
45 µg/mL

Another molecule to look at: "CN[C@@H]1[C@@H](O)[C@@H](O[C@@H]2[C@@H](O)[C@H](O[C@H]3O[C@H](CN)CC[C@H]3N)[C@@H](N)C[C@H]2N)OC[C@]1(C)O.O=S(=O)(O)O"
10 µg/mL

Another molecule to look at: CC1=CCC[C@@H]2[C@@](C)(CCC3=CC(=O)OC3Nc3cccc(F)c3)[C@H](C)CC[C@@]12C (mixture of isomers)
55 µg/mL

Another molecule to look at: "C=CC1=C(C(=O)O)N2C(=O)[C@@H](NC(=O)/C(=N\OCC(=O)O)c3csc(N)n3)[C@H]2SC1"
40 µg/mL

Another molecule to look at: "CC1=CCC[C@@H]2[C@@](C)(CC/C(C=O)=C\C(=O)O)[C@H](C)CC[C@@]12C"
20 µg/mL

Another molecule to look at: "CC1(C)S[C@@H]2[C@H](N)C(=O)N2[C@H]1C(=O)O"
7 µg/mL

Another molecule to look at: CC1=CCC[C@@H]2[C@@](C)(CCC3=CC(=O)OC3Nc3ccccc3)[C@H](C)CC[C@@]12C (mixture of isomers)
15 µg/mL

###

tested on: Staphylococcus aureus; assay: Antibacterial activity against methicillin-resistant Staphylococcus aureus ATCC 43300 measured after overnight incubation by two-fold serial dilution method; format: functional
Quick rule for you: MIC under 80 µg/mL gets met, anything else gets not met.

Strictly below 80 µg/mL: is that where MIC of "CC1=CCC[C@@H]2[C@@](C)(CC/C(C=O)=C\C(=O)O)[C@H](C)CC[C@@]12C" sits?
met

Another compound to look at: CC1=CCC[C@@H]2[C@@](C)(CCC3=CC(=O)OC3Nc3ccccc3)[C@H](C)CC[C@@]12C (mixture of isomers)
met

Another compound to look at: CC1=CCC[C@@H]2[C@@](C)(CCC3=CC(=O)OC3Nc3ccccc3F)[C@H](C)CC[C@@]12C (mixture of isomers)
met

Another compound to look at: "CN[C@@H]1[C@@H](O)[C@@H](O[C@@H]2[C@@H](O)[C@H](O[C@H]3O[C@H](CN)CC[C@H]3N)[C@@H](N)C[C@H]2N)OC[C@]1(C)O.O=S(=O)(O)O"
not met

Another compound to look at: CC1=CCC[C@@H]2[C@@](C)(CCC3=CC(=O)OC3Nc3cccc(F)c3)[C@H](C)CC[C@@]12C (mixture of isomers)
met

Another compound to look at: "CC1(C)S[C@@H]2[C@H](N)C(=O)N2[C@H]1C(=O)O"
not met

###

tested on: Proteus mirabilis; experiment: Antibiofilm activity against Proteus mirabilis ATCC 12453 measured after overnight incubation by crystal violet-staining based assay; type: functional
Task for the reader: assign each of the following compounds its reported log10(MBIC).
Note the log scale: values are log10 of MBIC expressed in µg/mL.

Using the record for CC1=CCC[C@@H]2[C@@](C)(CCC3=CC(=O)OC3Nc3cccc(F)c3)[C@H](C)CC[C@@]12C (mixture of isomers) , report its log10(MBIC).
2.04

Another compound to look at: "CN[C@@H]1[C@@H](O)[C@@H](O[C@@H]2[C@@H](O)[C@H](O[C@H]3O[C@H](CN)CC[C@H]3N)[C@@H](N)C[C@H]2N)OC[C@]1(C)O.O=S(=O)(O)O"
0.80

Another compound to look at: CC1=CCC[C@@H]2[C@@](C)(CCC3=CC(=O)OC3Nc3ccccc3F)[C@H](C)CC[C@@]12C (mixture of isomers)
1.95

Another compound to look at: "CC1(C)S[C@@H]2[C@H](N)C(=O)N2[C@H]1C(=O)O"
1.54

Another compound to look at: "C=CC1=C(C(=O)O)N2C(=O)[C@@H](NC(=O)/C(=N\OCC(=O)O)c3csc(N)n3)[C@H]2SC1"
1.60
